For each record, write down the corresponding refractive index.
# method description: refractive index (Na D-line) (dimensionless)
# test context: 348.15 K; 101.33 kPa; Liquid; Standard Abbe refractometry
Numbers only.

>>> df
                                   compound  measured
0  CCCCCCCCCCCCCC[P+](CCCCCC)(CCCCCC)CCCCCC.O=S(=O)([N-]S(=O)(=O)C(F)(F)F)C(F)(F)F    1.4337
1  CC(CC(C)(C)C)CP(=O)([O-])CC(C)CC(C)(C)C.CCCCCCCCCCCCCC[P+](CCCCCC)(CCCCCC)CCCCCC   1.45553
2  CCCCCCCCCCCCCC[P+](CCCCCC)(CCCCCC)CCCCCC.[Cl-] [trihexyl(tetradecyl)phosphonium chloride]   1.46504

Now let's try a different one.
Q: So what's the measured refractive index for this one? CCCCCCCCCCCCCC[P+](CCCCCC)(CCCCCC)CCCCCC.N#C[N-]C#N [tetradecyl(trihexyl)phosphonium dicyanamide]
A: 1.46767

###

For each record, write down the corresponding refractive index.
# method description: refractive index (Na D-line) (dimensionless)
# test context: 293.15 K; 101.33 kPa; Liquid; Standard Abbe refractometry
Answers are plain numbers.

Solved entries:
                                   compound  measured
0  CCCCCCCCCCCCCC[P+](CCCCCC)(CCCCCC)CCCCCC.N#C[N-]C#N [tetradecyl(trihexyl)phosphonium dicyanamide]   1.48545
1  CC(CC(C)(C)C)CP(=O)([O-])CC(C)CC(C)(C)C.CCCCCCCCCCCCCC[P+](CCCCCC)(CCCCCC)CCCCCC   1.47374
2  CCCCCCCCCCCCCC[P+](CCCCCC)(CCCCCC)CCCCCC.O=S(=O)([N-]S(=O)(=O)C(F)(F)F)C(F)(F)F    1.4512
3  CCCCCCCCCCCCCC[P+](CCCCCC)(CCCCCC)CCCCCC.[Br-] [tetradecyltrihexylphosphonium bromide]   1.49139
4  CCCCCCCCCCCCCC[P+](CCCCCC)(CCCCCC)CCCCCC.[Cl-] [trihexyl(tetradecyl)phosphonium chloride]   1.48471
5  CCCCCCCCCC(=O)[O-].CCCCCCCCCCCCCC[P+](CCCCCC)(CCCCCC)CCCCCC [trihexyltetradecylphosphonium decanoate]   1.47413

Now let's try a different one.
Q: So what's the measured refractive index for this one? CCCCCCCCCCCCCC[P+](CCCCCC)(CCCCCC)CCCCCC.CS(=O)(=O)[O-] [trihexyltetradecylphosphonium methanesulfonate]
A: 1.47507
